System: T1, human IL-4 receptor alpha chain on cells (TF-1 cells, primary human T-cell blasts and B cells) (human, UniProt P24394 26-825)
T1 sequence (looked up): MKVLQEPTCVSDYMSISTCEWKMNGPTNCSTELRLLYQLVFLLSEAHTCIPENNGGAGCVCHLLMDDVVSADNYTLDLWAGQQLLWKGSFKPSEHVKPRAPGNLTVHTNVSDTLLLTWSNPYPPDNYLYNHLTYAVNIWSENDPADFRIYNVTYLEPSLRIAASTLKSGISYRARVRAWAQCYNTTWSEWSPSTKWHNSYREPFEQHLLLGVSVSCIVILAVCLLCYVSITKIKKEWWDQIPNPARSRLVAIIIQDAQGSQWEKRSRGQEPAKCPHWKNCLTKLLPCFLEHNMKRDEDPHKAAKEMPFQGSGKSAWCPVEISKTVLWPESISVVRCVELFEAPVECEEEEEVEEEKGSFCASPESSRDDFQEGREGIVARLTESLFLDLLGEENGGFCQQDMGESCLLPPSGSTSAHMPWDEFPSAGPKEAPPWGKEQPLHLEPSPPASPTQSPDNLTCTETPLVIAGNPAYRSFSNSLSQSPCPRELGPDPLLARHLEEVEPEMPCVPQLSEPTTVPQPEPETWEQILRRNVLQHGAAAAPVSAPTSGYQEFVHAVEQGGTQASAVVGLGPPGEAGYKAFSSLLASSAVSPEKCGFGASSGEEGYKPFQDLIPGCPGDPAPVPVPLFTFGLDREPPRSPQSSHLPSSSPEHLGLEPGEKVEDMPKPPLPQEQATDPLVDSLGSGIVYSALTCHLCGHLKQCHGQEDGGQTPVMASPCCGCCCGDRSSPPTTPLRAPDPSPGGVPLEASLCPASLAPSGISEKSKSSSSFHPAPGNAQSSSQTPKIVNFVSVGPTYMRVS
Procedure Summary: cell-based or functional assay
Criterion: TF-1/IL-4 IC50 strictly less than 0.7 nM. Met: Satisfied. Not met: Not satisfied.

stdin: Check if TF-1/IL-4 IC50 falls below 0.7 nM for IL4-RE-S36C, PEGylated with linear 22 kD mPEG-maleimide (ligand, linear 22 kD methoxy-polyethylene glycol-maleimide on Cys 36 (numbered according to wild type IL-4), also called PEG-IL4RE) MHKCDITLQEIIKTLNSLTEQKTLCTELTVTDIFAACKNTTEKETFCRAATVLRQFYSHHEKDTRCLGATAQQFHRHKQLIRFLKRLDRNLWGLAGLNSCPVKEANQSTLENFLERLKTIMDEKDSKCSS .
stdout: Not satisfied

stdin: # strict comparison: is reported TF-1/IL-4 IC50 < 0.7 nM? input = IL4-RE-T28C, PEGylated with linear 22 kD mPEG-maleimide (ligand, linear 22 kD methoxy-polyethylene glycol-maleimide on Cys 28 (numbered according to wild type IL-4), also called PEG-IL4RE) MHKCDITLQEIIKTLNSLTEQKTLCTELCVTDIFAASKNTTEKETFCRAATVLRQFYSHHEKDTRCLGATAQQFHRHKQLIRFLKRLDRNLWGLAGLNSCPVKEANQSTLENFLERLKTIMDEKDSKCSS
stdout: Not satisfied

stdin: Please indicate whether the reported TF-1/IL-4 IC50 of IL4-RE-A104C, PEGylated with linear 22 kD mPEG-maleimide (ligand, linear 22 kD methoxy-polyethylene glycol-maleimide on Cys 104 (numbered according to wild type IL-4), also called PEG-IL4RE) MHKCDITLQEIIKTLNSLTEQKTLCTELTVTDIFAASKNTTEKETFCRAATVLRQFYSHHEKDTRCLGATAQQFHRHKQLIRFLKRLDRNLWGLAGLNSCPVKECNQSTLENFLERLKTIMDEKDSKCSS is strictly below 0.7 nM.
stdout: Satisfied

stdin: Please let me know if IL4-RE-Q106C, PEGylated with linear 22 kD mPEG-maleimide (ligand, linear 22 kD methoxy-polyethylene glycol-maleimide on Cys 106 (numbered according to wild type IL-4), also called PEG-IL4RE) MHKCDITLQEIIKTLNSLTEQKTLCTELTVTDIFAASKNTTEKETFCRAATVLRQFYSHHEKDTRCLGATAQQFHRHKQLIRFLKRLDRNLWGLAGLNSCPVKEANCSTLENFLERLKTIMDEKDSKCSS shows TF-1/IL-4 IC50 below 0.7 nM.
stdout: Not satisfied

stdin: Find out if reported TF-1/IL-4 IC50 for IL4-RE-K37C, PEGylated with linear 22 kD mPEG-maleimide (ligand, linear 22 kD methoxy-polyethylene glycol-maleimide on Cys 37 (numbered according to wild type IL-4), also called PEG-IL4RE) MHKCDITLQEIIKTLNSLTEQKTLCTELTVTDIFAASCNTTEKETFCRAATVLRQFYSHHEKDTRCLGATAQQFHRHKQLIRFLKRLDRNLWGLAGLNSCPVKEANQSTLENFLERLKTIMDEKDSKCSS is less than 0.7 nM
stdout: Not satisfied

stdin: API: query returns whether the binder falls strictly under 0.7 nM in TF-1/IL-4 IC50. Query: IL-4RA (IL-4 double mutein R121D/Y124D, unPEGylated) (ligand, also called BAY 16-9996; IL-4DM) MHKCDITLQEIIKTLNSLTEQKTLCTELTVTDIFAASKNTTEKETFCRAATVLRQFYSHHEKDTRCLGATAQQFHRHKQLIRFLKRLDRNLWGLAGLNSCPVKEANQSTLENFLERLKTIMDEKDSKCSS
stdout: Satisfied

stdin: Could you please tell me whether TF-1/IL-4 IC50 recorded for IL4-RE-N105C, PEGylated with linear 22 kD mPEG-maleimide (ligand, linear 22 kD methoxy-polyethylene glycol-maleimide on Cys 105 (numbered according to wild type IL-4), also called PEG-IL4RE) MHKCDITLQEIIKTLNSLTEQKTLCTELTVTDIFAASKNTTEKETFCRAATVLRQFYSHHEKDTRCLGATAQQFHRHKQLIRFLKRLDRNLWGLAGLNSCPVKEACQSTLENFLERLKTIMDEKDSKCSS is less than 0.7 nM?
stdout: Not satisfied

Where do these numbers come from? They come from patent US20090010874A1.
